Tested on: Escherichia coli
ASSAY INFO: Antibacterial activity against Escherichia coli ATCC 8739
Type: ADME, organism-based
MEASUREMENT LABEL: MIC (µM)
The answer is to be given in µM; state only the numeric part.

C[C@H]1COc2c(NCCCc3ccccn3)c(F)c(N)c3c(=O)c(C(=O)O)cn1c23 ... 19
C[C@H]1COc2c(NCCCn3ccnc3)c(F)c(N)c3c(=O)c(C(=O)O)cn1c23 ... 16

Dear colleague, please send me the reported MIC for C[C@H]1COc2c(NCCNc3ccccn3)c(F)c(N)c3c(=O)c(C(=O)O)cn1c23 when you can.
4

====

TARGET OR TEST SYSTEM: Cyclin-dependent kinase 2 (Homo sapiens)
ASSAY INFO: Inhibition of human CDK2 in HL-60 cells lysate assessed as reduction of labeling of acyl-phosphate ATP probe at 100 nM
Assay type: cell-free
MEASUREMENT LABEL: inhibition

C[C@H]1COc2c(NCCCc3ccccn3)c(F)c(N)c3c(=O)c(C(=O)O)cn1c23 ... < 35%
C[C@H]1COc2c(NCCCn3cccn3)c(F)c(N)c3c(=O)c(C#N)cn1c23 ... < 35%
C[C@H]1COc2c(NCCCc3ccccn3)c(F)c(N)c3c(=O)c(C#N)cn1c23 ... < 35%

For the next question, use this compound.
Dear colleague, please send me the reported inhibition for C[C@H]1COc2c(NCCCn3cccn3)c(F)c(N)c3c(=O)c(C(=O)O)cn1c23 when you can.
< 35%

====

Let's look at some compounds and their measured inhibition.
TARGET OR TEST SYSTEM: Phosphatidylinositol 5-phosphate 4-kinase type-2 beta (Homo sapiens)
Sequence (whole entry): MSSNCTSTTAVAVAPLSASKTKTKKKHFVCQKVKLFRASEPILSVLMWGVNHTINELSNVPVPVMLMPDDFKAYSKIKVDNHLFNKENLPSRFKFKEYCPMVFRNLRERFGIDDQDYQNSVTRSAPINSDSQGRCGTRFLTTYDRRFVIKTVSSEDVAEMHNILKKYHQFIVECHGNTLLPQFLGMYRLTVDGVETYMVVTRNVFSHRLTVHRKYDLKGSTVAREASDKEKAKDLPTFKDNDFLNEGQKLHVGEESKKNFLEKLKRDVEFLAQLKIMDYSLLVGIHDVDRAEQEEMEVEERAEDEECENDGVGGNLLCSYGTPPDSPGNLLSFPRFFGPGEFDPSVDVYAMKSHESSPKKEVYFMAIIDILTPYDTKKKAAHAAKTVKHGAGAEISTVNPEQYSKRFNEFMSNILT
ASSAY INFO: Inhibition of human PIP4K2B in HL-60 cells lysate assessed as reduction of labeling of acyl-phosphate ATP probe at 100 nM
Assay type: cell-free

Sample records with inhibition:
C[C@H]1COc2c(NCCCc3ccccn3)c(F)c(N)c3c(=O)c(C#N)cn1c23 ... < 35%
C[C@H]1COc2c(NCCCn3cccn3)c(F)c(N)c3c(=O)c(C#N)cn1c23 ... < 35%
C[C@H]1COc2c(NCCCc3ccccn3)c(F)c(N)c3c(=O)c(C(=O)O)cn1c23 ... < 35%

For the next question, use this compound.
Dear colleague, please send me the reported inhibition for C[C@H]1COc2c(NCCCn3cccn3)c(F)c(N)c3c(=O)c(C(=O)O)cn1c23 when you can.
< 35%

====

TARGET OR TEST SYSTEM: Glycogen synthase kinase-3 beta (Homo sapiens, UniProt P49841)
Sequence (P49841 whole entry): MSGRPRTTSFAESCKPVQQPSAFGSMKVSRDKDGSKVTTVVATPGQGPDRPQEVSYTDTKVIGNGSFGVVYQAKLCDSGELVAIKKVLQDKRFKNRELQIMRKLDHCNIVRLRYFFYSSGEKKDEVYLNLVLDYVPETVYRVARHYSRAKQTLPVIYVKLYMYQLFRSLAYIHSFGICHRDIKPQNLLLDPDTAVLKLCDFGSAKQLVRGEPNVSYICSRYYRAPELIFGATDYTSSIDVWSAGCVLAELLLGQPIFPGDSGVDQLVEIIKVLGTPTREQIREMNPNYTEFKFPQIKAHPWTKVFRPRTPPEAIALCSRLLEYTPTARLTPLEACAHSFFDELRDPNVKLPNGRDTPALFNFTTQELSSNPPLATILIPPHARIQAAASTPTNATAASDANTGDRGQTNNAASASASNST
ASSAY INFO: Inhibition of GSK3-beta
MEASUREMENT LABEL: IC50 (nM)
The answer is to be given in nM; state only the numeric part.

Sample records with IC50:
C[C@H]1COc2c(NCCCc3ccccn3)c(F)c(N)c3c(=O)c(-c4nnn[nH]4)cn1c23 ... 2.4
C[C@H]1COc2c(NCCCn3ccnc3)c(F)c(N)c3c(=O)c(C#N)cn1c23 ... 1
C[C@H]1COc2c(NCCCn3ccnc3)c(F)c(N)c3c(=O)c(C(N)=O)cn1c23 ... 180
C[C@H]1COc2c(NCCCc3ccccn3)c(F)c(N)c3c(=O)c(C(=O)O)cn1c23 ... 10

For the next question, use this compound.
Dear colleague, please send me the reported IC50 for C[C@H]1COc2c(NCCCn3ccnc3)c(F)c(N)c3c(=O)c(C(=N)NO)cn1c23 when you can.
140

====

TARGET OR TEST SYSTEM: Phosphatidylinositol 4,5-bisphosphate 3-kinase catalytic subunit gamma isoform (Homo sapiens)
ASSAY INFO: Inhibition of human PIK3CG in HL-60 cells lysate assessed as reduction of labeling of acyl-phosphate ATP probe at 100 nM
Type: cell-free
MEASUREMENT LABEL: inhibition

Sample records with inhibition:
C[C@H]1COc2c(NCCCc3ccccn3)c(F)c(N)c3c(=O)c(C#N)cn1c23 ... < 35%
C[C@H]1COc2c(NCCCc3ccccn3)c(F)c(N)c3c(=O)c(C(=O)O)cn1c23 ... < 35%
C[C@H]1COc2c(NCCCn3cccn3)c(F)c(N)c3c(=O)c(C#N)cn1c23 ... < 35%

Dear colleague, please send me the reported inhibition for C[C@H]1COc2c(NCCCn3cccn3)c(F)c(N)c3c(=O)c(C(=O)O)cn1c23 when you can.
< 35%

====

Let's look at some compounds and their measured inhibition.
TARGET OR TEST SYSTEM: Serine/threonine-protein kinase 26 (Homo sapiens)
ASSAY INFO: Inhibition of human MST4 in HL-60 cells lysate assessed as reduction of labeling of acyl-phosphate ATP probe at 100 nM
Type: cell-free

Sample records with inhibition:
C[C@H]1COc2c(NCCCc3ccccn3)c(F)c(N)c3c(=O)c(C#N)cn1c23 ... < 35%
C[C@H]1COc2c(NCCCn3cccn3)c(F)c(N)c3c(=O)c(C(=O)O)cn1c23 ... < 35%
C[C@H]1COc2c(NCCCc3ccccn3)c(F)c(N)c3c(=O)c(C(=O)O)cn1c23 ... < 35%

Dear colleague, please send me the reported inhibition for C[C@H]1COc2c(NCCCn3cccn3)c(F)c(N)c3c(=O)c(C#N)cn1c23 when you can.
< 35%

====

TARGET OR TEST SYSTEM: Serine/threonine-protein kinase/endoribonuclease IRE1 (Homo sapiens) (UniProt O75460)
Sequence (O75460 19-977 limits assumed): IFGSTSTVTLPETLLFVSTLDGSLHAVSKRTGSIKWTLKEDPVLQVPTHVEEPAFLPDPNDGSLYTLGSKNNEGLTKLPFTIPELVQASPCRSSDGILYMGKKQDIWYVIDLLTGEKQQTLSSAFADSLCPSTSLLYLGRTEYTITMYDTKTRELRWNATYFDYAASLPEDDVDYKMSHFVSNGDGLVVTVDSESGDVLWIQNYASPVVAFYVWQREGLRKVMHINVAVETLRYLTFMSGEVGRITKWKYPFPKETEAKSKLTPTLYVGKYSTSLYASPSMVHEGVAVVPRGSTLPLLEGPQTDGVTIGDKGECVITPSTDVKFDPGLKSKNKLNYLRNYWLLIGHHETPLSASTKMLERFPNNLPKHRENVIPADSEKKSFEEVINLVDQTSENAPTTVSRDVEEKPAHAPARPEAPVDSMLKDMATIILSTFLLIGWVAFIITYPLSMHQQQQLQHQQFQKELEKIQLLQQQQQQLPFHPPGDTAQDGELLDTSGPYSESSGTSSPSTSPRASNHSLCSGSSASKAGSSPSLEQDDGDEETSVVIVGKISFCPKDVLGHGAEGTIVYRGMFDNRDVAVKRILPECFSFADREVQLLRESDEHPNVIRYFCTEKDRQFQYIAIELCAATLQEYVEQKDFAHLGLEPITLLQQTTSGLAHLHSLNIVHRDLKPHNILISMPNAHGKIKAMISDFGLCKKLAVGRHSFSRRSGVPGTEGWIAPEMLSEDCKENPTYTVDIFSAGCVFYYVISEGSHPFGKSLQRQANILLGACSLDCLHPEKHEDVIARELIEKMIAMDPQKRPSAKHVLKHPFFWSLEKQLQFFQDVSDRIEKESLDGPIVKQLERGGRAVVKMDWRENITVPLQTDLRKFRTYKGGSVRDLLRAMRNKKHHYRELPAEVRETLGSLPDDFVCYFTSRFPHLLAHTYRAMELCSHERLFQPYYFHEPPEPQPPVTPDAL
ASSAY INFO: Inhibition of human IRE1 in HL-60 cells lysate assessed as reduction of labeling of acyl-phosphate ATP probe at 100 nM
Format: cell-free
Let's look at some molecules and their measured inhibition.

Sample records with inhibition:
C[C@H]1COc2c(NCCCn3cccn3)c(F)c(N)c3c(=O)c(C#N)cn1c23 ... < 35%
C[C@H]1COc2c(NCCCc3ccccn3)c(F)c(N)c3c(=O)c(C#N)cn1c23 ... < 35%
C[C@H]1COc2c(NCCCn3cccn3)c(F)c(N)c3c(=O)c(C(=O)O)cn1c23 ... < 35%

For the next question, use this molecule.
Dear colleague, please send me the reported inhibition for C[C@H]1COc2c(NCCCc3ccccn3)c(F)c(N)c3c(=O)c(C(=O)O)cn1c23 when you can.
< 35%

====

TARGET OR TEST SYSTEM: c-Jun N-terminal kinase, JNK (Homo sapiens) (UniProt P45983+P53779+P45984)
ASSAY INFO: Inhibition of human JNK1/JNK2/JNK3 in HL-60 cells lysate assessed as reduction of labeling of acyl-phosphate ATP probe at 100 nM
Assay type: cell-free
Let's look at some compounds and their measured inhibition.

C[C@H]1COc2c(NCCCc3ccccn3)c(F)c(N)c3c(=O)c(C#N)cn1c23 ... < 35%
C[C@H]1COc2c(NCCCc3ccccn3)c(F)c(N)c3c(=O)c(C(=O)O)cn1c23 ... < 35%
C[C@H]1COc2c(NCCCn3cccn3)c(F)c(N)c3c(=O)c(C#N)cn1c23 ... < 35%

For the next question, use this compound.
Dear colleague, please send me the reported inhibition for C[C@H]1COc2c(NCCCn3cccn3)c(F)c(N)c3c(=O)c(C(=O)O)cn1c23 when you can.
< 35%

====

TARGET OR TEST SYSTEM: Serine/threonine-protein kinase Nek6 (Homo sapiens)
ASSAY INFO: Inhibition of human NEK6 in HL-60 cells lysate assessed as reduction of labeling of acyl-phosphate ATP probe at 100 nM
Assay type: cell-free
Let's look at some molecules and their measured inhibition.

Sample records with inhibition:
C[C@H]1COc2c(NCCCc3ccccn3)c(F)c(N)c3c(=O)c(C(=O)O)cn1c23 ... < 35%
C[C@H]1COc2c(NCCCc3ccccn3)c(F)c(N)c3c(=O)c(C#N)cn1c23 ... < 35%
C[C@H]1COc2c(NCCCn3cccn3)c(F)c(N)c3c(=O)c(C(=O)O)cn1c23 ... < 35%

Dear colleague, please send me the reported inhibition for C[C@H]1COc2c(NCCCn3cccn3)c(F)c(N)c3c(=O)c(C#N)cn1c23 when you can.
< 35%
